FACS fluorescence listing for selected binders.
- test target: T1, CLDN6 endogenously expressed by human cancer cell lines (ARK2, OVCA429) (human, UniProt P56747 1-220)
- T1 construct: Untagged endogenous protein; also called Endogenous CLDN6+
- T1 sequence: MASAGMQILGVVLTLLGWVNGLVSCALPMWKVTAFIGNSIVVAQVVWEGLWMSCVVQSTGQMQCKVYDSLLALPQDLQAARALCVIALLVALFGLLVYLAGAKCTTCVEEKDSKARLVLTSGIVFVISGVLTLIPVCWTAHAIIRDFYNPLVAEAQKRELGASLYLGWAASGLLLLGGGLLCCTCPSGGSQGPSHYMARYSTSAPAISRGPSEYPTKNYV
- test name: FACS, 1.5 µg Ab, ARK2 cells

binder	FACS fluorescence
AB9-chim (antibody, V domains shown, 'chim' is the pre-humanized form (parental variable regions); also called pre-humanized (chimeric) form of AB9) VH: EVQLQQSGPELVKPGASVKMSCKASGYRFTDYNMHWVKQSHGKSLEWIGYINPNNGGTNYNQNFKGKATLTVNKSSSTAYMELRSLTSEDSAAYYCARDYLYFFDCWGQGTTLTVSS VL: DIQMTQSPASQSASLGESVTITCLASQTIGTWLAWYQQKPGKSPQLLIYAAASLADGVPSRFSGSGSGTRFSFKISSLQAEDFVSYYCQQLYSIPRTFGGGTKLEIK	4490
AB4-6 (antibody, V domains shown, also called Humanized AB 4-6) VH: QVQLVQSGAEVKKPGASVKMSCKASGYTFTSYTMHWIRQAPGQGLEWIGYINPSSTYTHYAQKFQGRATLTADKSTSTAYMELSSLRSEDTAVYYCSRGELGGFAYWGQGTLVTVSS VL: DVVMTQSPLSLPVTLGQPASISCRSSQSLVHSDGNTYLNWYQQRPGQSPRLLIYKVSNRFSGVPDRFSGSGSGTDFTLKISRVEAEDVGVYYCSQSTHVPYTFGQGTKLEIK	9840
AB18-4 (antibody, V domains shown, also called Humanized AB 18-4) VH: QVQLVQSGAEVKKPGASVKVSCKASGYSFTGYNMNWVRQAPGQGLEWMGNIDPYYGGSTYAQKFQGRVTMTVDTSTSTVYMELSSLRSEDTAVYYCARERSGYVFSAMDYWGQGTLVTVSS VL: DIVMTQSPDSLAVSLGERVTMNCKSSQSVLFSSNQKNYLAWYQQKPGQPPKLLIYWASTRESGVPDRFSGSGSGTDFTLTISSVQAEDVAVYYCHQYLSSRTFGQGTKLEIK	1380
AB11-3 (antibody, V domains shown, also called Humanized AB 11-3) VH: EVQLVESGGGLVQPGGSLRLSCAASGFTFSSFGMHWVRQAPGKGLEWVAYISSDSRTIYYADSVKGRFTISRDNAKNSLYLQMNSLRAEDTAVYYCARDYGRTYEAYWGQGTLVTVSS VL: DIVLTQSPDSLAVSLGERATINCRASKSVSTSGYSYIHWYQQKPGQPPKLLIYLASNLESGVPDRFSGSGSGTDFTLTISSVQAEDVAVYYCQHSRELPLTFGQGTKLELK	1540
AB18-chim (antibody, V domains shown, 'chim' is the pre-humanized form (parental variable regions); also called pre-humanized (chimeric) form of AB18) VH: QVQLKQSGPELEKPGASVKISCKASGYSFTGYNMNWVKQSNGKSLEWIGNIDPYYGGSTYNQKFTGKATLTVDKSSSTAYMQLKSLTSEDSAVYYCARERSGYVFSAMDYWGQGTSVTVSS VL: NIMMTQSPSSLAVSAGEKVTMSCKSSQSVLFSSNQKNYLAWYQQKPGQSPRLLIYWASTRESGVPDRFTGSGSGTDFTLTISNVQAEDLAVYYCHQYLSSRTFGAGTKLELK	9150
